tested on: KRAS PDC tumor spheroids (HUVEC+MSC), viability; experiment: Anticancer human tumor 254851-301-R-J1-PDC patient-derived colon carcinoma cell line growth inhibition [KRAS2]; details: second compound 1 µM; first compound 0.01 µM; hits give low values;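 also: spheroids exposed to compounds for seven days before readout; 100% = DMSO vehicle control luminescence of the spheroids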
endpoint label: viability, T/C

- Cn1ncnc1[C@H]1c2n[nH]c(=O)c3cc(F)cc(c23)N[C@@H]1c1ccc(F)cc1 + C=CC(=O)N1CCN(c2nc(OCC3CCCN3C)nc3c2CCN(c2cccc4cccc(C)c24)C3)CC1CC#N: 88.9%
- CCN1CCN(Cc2ccc(Nc3ncc(F)c(-c4cc(F)c5nc(C)n(C(C)C)c5c4)n3)nc2)CC1 + CNCc1ccccc1-c1csc(C(C)Nc2nc(C)nc3cc(OC)c(OC)cc23)c1: 83.6%
- CC1COCCN1c1cc(-c2ccnn2C)c2ccnc(-c3ccn[nH]3)c2n1 (stereo not given) + CC1OCC2(CCN(c3cnc(Sc4ccnc(N)c4Cl)c(N)n3)CC2)C1N: 88.7%
- CC1COCCN1c1cc(-c2ccnn2C)c2ccnc(-c3ccn[nH]3)c2n1 (stereo not given) + C=CC(=O)N1CCN(c2nc(OCC3CCCN3C)nc3c2CCN(c2cccc4cccc(C)c24)C3)CC1CC#N: 59.4%
- CC(=O)Nc1cccc(-n2c(=O)n(C3CC3)c(=O)c3c(Nc4ccc(I)cc4F)n(C)c(=O)c(C)c32)c1 + C=CC(=O)N1CCN(c2nc(=O)n(-c3c(C)ccnc3C(C)C)c3nc(-c4c(O)cccc4F)c(F)cc23)C(C)C1: 35.5%
- CN(C)C/C=C/C(=O)Nc1cc2c(Nc3ccc(F)c(Cl)c3)ncnc2cc1O[C@H]1CCOC1 + CNCc1ccccc1-c1csc(C(C)Nc2nc(C)nc3cc(OC)c(OC)cc23)c1: 82%
- CC(=O)OC12COC1CC(O)C1(C)C(=O)C(O)C3=C(C)C(OC(=O)C(O)C(NC(=O)OC(C)(C)C)c4ccccc4)CC(O)(C(OC(=O)c4ccccc4)C21)C3(C)C (stereo not given) + CNCc1ccccc1-c1csc(C(C)Nc2nc(C)nc3cc(OC)c(OC)cc23)c1: 81.3%
- Cn1ncnc1[C@H]1c2n[nH]c(=O)c3cc(F)cc(c23)N[C@@H]1c1ccc(F)cc1 + COc1cc2nc(C)nc(NC(C)c3cc(N)cc(C(F)(F)F)c3)c2cc1OC1CCOC1: 86.4%
- CC(=O)OC12COC1CC(O)C1(C)C(=O)C(O)C3=C(C)C(OC(=O)C(O)C(NC(=O)OC(C)(C)C)c4ccccc4)CC(O)(C(OC(=O)c4ccccc4)C21)C3(C)C (stereo not given) + COc1cc2nc(C)nc(NC(C)c3cc(N)cc(C(F)(F)F)c3)c2cc1OC1CCOC1: 82.2%
- CN(C)C/C=C/C(=O)Nc1cc2c(Nc3ccc(F)c(Cl)c3)ncnc2cc1O[C@H]1CCOC1 + C=CC(=O)N1CCN(c2nc(=O)n(-c3c(C)ccnc3C(C)C)c3nc(-c4c(O)cccc4F)c(F)cc23)C(C)C1: 87.2%
- CN(C)C/C=C/C(=O)Nc1cc2c(Nc3ccc(F)c(Cl)c3)ncnc2cc1O[C@H]1CCOC1 + C=CC(=O)N1CCN(c2nc(OCC3CCCN3C)nc3c2CCN(c2cccc4cccc(C)c24)C3)CC1CC#N: 95.9%
- CCN1CCN(Cc2ccc(Nc3ncc(F)c(-c4cc(F)c5nc(C)n(C(C)C)c5c4)n3)nc2)CC1 + C=CC(=O)N1CCN(c2nc(OCC3CCCN3C)nc3c2CCN(c2cccc4cccc(C)c24)C3)CC1CC#N: 63.2%
- CC(C)n1nc(-c2ccc3oc(N)nc3c2)c2c(N)ncnc21 + C=CC(=O)N1CCN(c2nc(=O)n(-c3c(C)ccnc3C(C)C)c3nc(-c4c(O)cccc4F)c(F)cc23)C(C)C1: 54.7%
- CC(=O)Nc1cccc(-n2c(=O)n(C3CC3)c(=O)c3c(Nc4ccc(I)cc4F)n(C)c(=O)c(C)c32)c1 + CC1OCC2(CCN(c3cnc(Sc4ccnc(N)c4Cl)c(N)n3)CC2)C1N: 3.61%
- CCN1CCN(Cc2ccc(Nc3ncc(F)c(-c4cc(F)c5nc(C)n(C(C)C)c5c4)n3)nc2)CC1 + C=CC(=O)N1CCN(c2nc(=O)n(-c3c(C)ccnc3C(C)C)c3nc(-c4c(O)cccc4F)c(F)cc23)C(C)C1: 101%
- CN(C)C/C=C/C(=O)Nc1cc2c(Nc3ccc(F)c(Cl)c3)ncnc2cc1O[C@H]1CCOC1 + COc1cc2nc(C)nc(NC(C)c3cc(N)cc(C(F)(F)F)c3)c2cc1OC1CCOC1: 81.8%
- CCN1CCN(Cc2ccc(Nc3ncc(F)c(-c4cc(F)c5nc(C)n(C(C)C)c5c4)n3)nc2)CC1 + CC1OCC2(CCN(c3cnc(Sc4ccnc(N)c4Cl)c(N)n3)CC2)C1N: 94.3%
- CC(=O)Nc1cccc(-n2c(=O)n(C3CC3)c(=O)c3c(Nc4ccc(I)cc4F)n(C)c(=O)c(C)c32)c1 + C=CC(=O)N1CCN(c2nc(OCC3CCCN3C)nc3c2CCN(c2cccc4cccc(C)c24)C3)CC1CC#N: 19.1%
- CC1COCCN1c1cc(-c2ccnn2C)c2ccnc(-c3ccn[nH]3)c2n1 (stereo not given) + COc1cc2nc(C)nc(NC(C)c3cc(N)cc(C(F)(F)F)c3)c2cc1OC1CCOC1: 103%
- CN(C)C/C=C/C(=O)Nc1cc2c(Nc3ccc(F)c(Cl)c3)ncnc2cc1O[C@H]1CCOC1 + CC1OCC2(CCN(c3cnc(Sc4ccnc(N)c4Cl)c(N)n3)CC2)C1N: 91.8%
